Test system: colistin resistant MCR (+) E. Coli strains
testMethodNotes: MIC, broth microdilution, compound alone
Format: cell-based
conditionDescription: strain 6083655967, MCR (+); compound alone
For each of the compounds below, state its MIC.
Please give a number only; it is taken to be in µg/mL.

**Q:** GET /values?readout=MIC&item= CCN(CC)CCCCOc1ccc(C2COc3c(ccc4c3C=CC(C)(C)O4)C2)c(OCCCCN(CC)CC)c1 (stereo not shown)
**A:** 25

**Q:** GET /values?readout=MIC&item= CN(C)CCCN(C)CCCCOc1ccc(C2COc3c(ccc4c3C=CC(C)(C)O4)C2)c(OCCCCN(C)CCCN(C)C)c1 (stereo not shown)
**A:** 25

**Q:** GET /values?readout=MIC&item= CC[N+](CC)(CC)CCCCOc1ccc(C2COc3c(ccc4c3C=CC(C)(C)O4)C2)c(OCCCC[N+](CC)(CC)CC)c1 (stereo not shown)
**A:** 50

**Q:** GET /values?readout=MIC&item= CC(C)=CCc1c(OCCN(C)CCCN(C)C)ccc(C(=O)/C=C/c2ccc(OCCN(C)CCCN(C)C)cc2)c1O
**A:** 12.5

**Q:** GET /values?readout=MIC&item= CC(C)=CCc1c(OCCCCN(C)CCCN(C)C)ccc(C(=O)/C=C/c2ccc(OCCCCN(C)CCCN(C)C)cc2)c1O
**A:** 6.25

**Q:** GET /values?readout=MIC&item= CC(C)=CCc1c(OCCC[N+](C)(C)C)ccc(C(=O)/C=C/c2ccc(OCCC[N+](C)(C)C)cc2)c1O
**A:** 12.5

----------
Tested on: colistin resistant MCR (+) E. Coli strains
testMethodNotes: Synergy study: colistin MIC in the presence of compound
Format: cell-based
conditionDescription: strain 6123520276, MCR(+); compound at 10 μg (Table 2a: 10 ug/ml)
quantityKind: Colistin MIC in the presence of the compound (µg/mL)
Please give a number only; it is taken to be in µg/mL.

**Q:** GET /values?readout=Colistin MIC in the presence of the compound&item= CN(C)CCCN(CCCCOc1ccc(C2COc3c(ccc4c3C=CC(C)(C)O4)C2)c(OCCCCN(CCCN(C)C)CCCN(C)C)c1)CCCN(C)C (centres unmarked)
**A:** 1.56

**Q:** GET /values?readout=Colistin MIC in the presence of the compound&item= Cc1cc(OCCCCC[N+](C)(C)C)cc(OCCCCC[N+](C)(C)C)c1
**A:** 6.25

**Q:** GET /values?readout=Colistin MIC in the presence of the compound&item= CCN(CC)CCCCOc1ccc(/C=C/C(=O)c2ccc(OCCCCN(CC)CC)cc2O)cc1
**A:** 3.125

**Q:** GET /values?readout=Colistin MIC in the presence of the compound&item= CC1(C)C=Cc2c(ccc3c2OCC(c2ccc(OCCCC[n+]4ccccc4)cc2OCCCC[n+]2ccccc2)C3)O1 (centres unmarked)
**A:** 0.195

----------
Test system: colistin resistant MCR (−) E. Coli strains
testMethodNotes: Synergy study: colistin MIC in the presence of compound
Type: cell-based
conditionDescription: strain 6083672926, MCR(−); compound at 2 μg
For each of the compounds below, state its Colistin MIC in the presence of the compound.
Please give a number only; it is taken to be in mg/L.

**Q:** Could you share what Colistin MIC in the presence of the compound was measured for CC(C)=CCc1c(OCCCC[n+]2ccn(C)c2)ccc(C(=O)/C=C/c2ccc(OCCCC[n+]3ccn(C)c3)cc2)c1O , tested on colistin resistant MCR (−) E. Coli strains?
**A:** 0.195

**Q:** Could you share what Colistin MIC in the presence of the compound was measured for CC(C)=CCc1c(OCCCC[n+]2ccccc2)ccc(C(=O)/C=C/c2ccc(OCCCC[n+]3ccccc3)cc2)c1O , tested on colistin resistant MCR (−) E. Coli strains?
**A:** 0.195

**Q:** Could you share what Colistin MIC in the presence of the compound was measured for CC(C)=CCc1c(OCCCCC[N+](C)(C)C)ccc(C(=O)/C=C/c2ccc(OCCCCC[N+](C)(C)C)cc2)c1O , tested on colistin resistant MCR (−) E. Coli strains?
**A:** 0.39

**Q:** Could you share what Colistin MIC in the presence of the compound was measured for CC(C)=CCc1c(OCCN(C)CCCN(C)C)ccc(C(=O)/C=C/c2ccc(OCCN(C)CCCN(C)C)cc2)c1O , tested on colistin resistant MCR (−) E. Coli strains?
**A:** 1.56
